The values you see were collected from paper PMC7531004.

test system: Streptococcus pyogenes SSI-9; experiment: Antibacterial activity assay of bead-derived peptides (three concentrations); assay type: cell-based; set-up: key: +++: inhibition by the 640-fold diluted peptide solution; ++: inhibition by the 160-fold diluted solution; +: inhibition by the 40-fold diluted solution; -: no inhibition; settings: S. pyogenes, bead-derived peptide solution, three concentrations
Where a SMILES comes first, the peptide text is derived from it. [ ]: non-standard residue; d: D form. The star is where a group is joined. NHCH2CH2OH = OCCN*; For = O=C*
measure: antibacterial activity

compound	measure	obs value
CC(C)C[C@@H](NC(=O)[C@H](Cc1c[nH]c2ccccc12)NC(=O)[C@H](NC(=O)[C@H](Cc1c[nH]c2ccccc12)NC(=O)[C@H](NC(=O)[C@H](Cc1c[nH]c2ccccc12)NC(=O)[C@@H](CC(C)C)NC(=O)[C@@H](NC(=O)[C@H](NC(=O)[C@H](C)NC(=O)[C@H](NC(=O)[C@H](C)NC(=O)CNC(=O)[C@@H](NC=O)C(C)C)C(C)C)C(C)C)C(C)C)C(C)C)[C@H](C)O)C(=O)N[C@@H](Cc1c[nH]c2ccccc12)C(=O)NCCO [compound 2580] (For-VGA[dV]A[dV]V[dL]W[dV]W[dT]W[dL]W-NHCH2CH2OH)	antibacterial activity	-

====

test system: Streptococcus pyogenes SSI-9; experiment: Antibacterial activity assay of bead-derived peptides (three concentrations); assay type: cell-based; design: key: +++: inhibition by the 640-fold diluted peptide solution; ++: inhibition by the 160-fold diluted solution; +: inhibition by the 40-fold diluted solution; -: no inhibition; settings: S. pyogenes, bead-derived peptide solution, three concentrations
Where a SMILES comes first, the peptide text is derived from it. [ ]: non-standard residue; d: D form. The star is where a group is joined. NHCH2CH2OH = OCCN*; For = O=C*

compound	antibacterial activity
CC(C)C[C@@H](NC(=O)[C@H](Cc1c[nH]c2ccccc12)NC(=O)[C@@H](CC(C)C)NC(=O)[C@H](Cc1c[nH]c2ccccc12)NC(=O)[C@H](NC(=O)[C@H](Cc1c[nH]c2ccccc12)NC(=O)[C@@H](CC(C)C)NC(=O)[C@@H](NC(=O)[C@H](NC(=O)[C@H](C)NC(=O)[C@H](NC(=O)[C@H](C)NC(=O)CNC(=O)[C@@H](NC=O)C(C)C)C(C)C)C(C)C)C(C)C)C(C)C)C(=O)N[C@@H](Cc1c[nH]c2ccccc12)C(=O)NCCO [compound 10661] (For-VGA[dV]A[dV]V[dL]W[dV]W[dL]W[dL]W-NHCH2CH2OH)	+
CC(C)C[C@@H](NC(=O)[C@H](C)NC(=O)[C@H](NC(=O)[C@H](C)NC(=O)CNC(=O)[C@@H](NC=O)C(C)C)C(C)C)C(=O)N[C@H](C(=O)N[C@@H](C(=O)N[C@@H](Cc1c[nH]c2ccccc12)C(=O)N[C@@H](C(=O)N[C@@H](Cc1c[nH]c2ccccc12)C(=O)N[C@H](CC(C)C)C(=O)N[C@@H](Cc1c[nH]c2ccccc12)C(=O)N[C@H](CC(C)C)C(=O)N[C@@H](Cc1c[nH]c2ccccc12)C(=O)NCCO)[C@H](C)O)[C@H](C)O)C(C)C [compound 8374] (For-VGA[dV]A[dL]V[dT]W[dT]W[dL]W[dL]W-NHCH2CH2OH)	-
CNC(=O)C[C@@H](NC(=O)[C@@H](NC(=O)[C@H](NC(=O)[C@H](C)NC(=O)[C@@H](CC(C)C)NC(=O)[C@H](C)NC(=O)CNC(=O)[C@@H](NC=O)C(C)C)C(C)C)C(C)C)C(=O)N[C@@H](Cc1c[nH]c2ccccc12)C(=O)N[C@H](CC(C)C)C(=O)N[C@@H](Cc1c[nH]c2ccccc12)C(=O)N[C@H](CC(C)C)C(=O)N[C@@H](Cc1c[nH]c2ccccc12)C(=O)N[C@@H](C(=O)N[C@@H](Cc1c[nH]c2ccccc12)C(=O)NCCO)C(C)C [compound 8831] (For-VGA[dL]A[dV]V[dD](NHMe)W[dL]W[dL]W[dV]W-NHCH2CH2OH)	-
CC(C)C[C@@H](NC(=O)[C@H](C)NC(=O)CNC(=O)[C@@H](NC=O)C(C)C)C(=O)N[C@@H](C)C(=O)N[C@@H](C(=O)N[C@H](C(=O)N[C@@H](C(=O)N[C@@H](Cc1c[nH]c2ccccc12)C(=O)N[C@@H](C(=O)N[C@@H](Cc1c[nH]c2ccccc12)C(=O)N[C@@H](C(=O)N[C@@H](Cc1c[nH]c2ccccc12)C(=O)N[C@@H](C(=O)N[C@@H](Cc1c[nH]c2ccccc12)C(=O)NCCO)C(C)C)C(C)C)C(C)C)[C@H](C)O)C(C)C)C(C)C [compound 1520] (For-VGA[dL]A[dV]V[dT]W[dV]W[dV]W[dV]W-NHCH2CH2OH)	-
